Data origin: patent US20200200749A1

# assay target: BDBV sGP (BDBV (Bundibugyo ebolavirus))
# assay name: ELISA
quantity: EC50 (µg/mL)
# unit: µg/mL | format: bare number

These solved cases illustrate the format of a correct answer.
binder="289 (antibody, V domains shown) VH: QVQLVQSGAEVKKPGSSVKVSCKASGATFGSDTVTWVRQAPGQGLEWMGGIIPFFGEANYAQRFQGRVTITADKSTNTAYMELSSLRSEDTAVYFCARQINEMATFGEIHYYTYMDVWGQGTLVTVSS VL: GSELTQDPAVSVALGQTVRITCQGDSLRNYYASWYQQKPRQAPVLVFYGKNNRPSGIPDRFSGSSSGNTASLTISGAQAEDEADYYCNSRDSSSNHLVFGGGTKLTVLS" result_unit=µg/mL observed_measurement=0.006
binder="270 (antibody, V domains shown) VH: QVQLQESGPGLVKPSQTLSLTCTVSGASISRGLYYWSWIRQPAGKGLEWIGRIYTSGSINYNPSLKSRVTISVDTSKNQFSLRLSSVIATDTAVYYCVRDAPWGDFLTGYFGFYGMDVWGQGTLVTVSS VL: DIVMTQSPSSLSASVGDRVTITCRASQSINTYLNWYQQKPGKAPKFLIYAASSLHSGVPSRFSGSGSGTDFTLTINSLQPDDFATYYCQQSFTTPYTFGQGTKLEIK" result_unit=µg/mL observed_measurement=0.025

[in] Which value of EC50 has been reported for 324 (antibody, V domains shown) VH: QVQLVQSGAEVKKPGASVKVSCKTSGYTFTSFEIHWVRQGSGQGLEWMGRMNPKSGDTVSAQKFQGRVTLTRDTSINAAYMELGSLSSEDTAVYYCARGPHVGEVVPGLMAGTYYFPLDVWGQGTLVTVSS VL: DIQMTQSPSTLSASIGDRVTITCRASQSISRWLAWYQQKPGKAPKLLIYKVSDLQSGVPSRFSGSGYGTEFTLTIGSLQPDDLATYYCQQYDTYPWTFGQGTKLEIK in the records?
[out] 0.012
